Test system: osteoclast differentiation
Test: Inhibitory effects on osteoclast differentiation (co-culture of bone marrow cells with osteoblast, TRAP staining)
Type: cell-based, mice
Settings: Mus musculus, Osteoclast, 168 h; 1 m; co-culture of bone marrow cells and osteoblast, 7 days, TRAP-positive osteoclasts versus controls; read-out: % inhibitory activity on osteoclastogenesis
OBSERVATION_TYPE: inhibition at 1 µM
Number first, unit second.

[[record]]
molecule = "CC(C)c1sc(N2CCOCC2)nc1-c1ccc(OCCCCCOc2ccc(C(=N)NO)cc2)cc1 [Example 169]"
observation_type = "inhibition at 1 µM"
observed = "83.3%"

[[record]]
molecule = "Cc1nc(-c2ccc(OCCCCCOc3ccc(C(=N)NO)c(F)c3)cc2F)c(C(C)C)s1 [Example 192]"
observation_type = "inhibition at 1 µM"
observed = "70.5%"

[[record]]
molecule = "N=C(NO)c1ccc(OCCCCCOc2ccc(-c3nc(NC(=O)c4cccnc4)sc3CC3CCCC3)cc2)cc1 [Example 89]"
observation_type = "inhibition at 1 µM"
observed = "81.2%"

[[record]]
molecule = "CCNc1nc(-c2ccc(OCCCCCOc3ccc(C(=N)NO)cc3)cc2)c(CC)s1 [Example 97]"
observation_type = "inhibition at 1 µM"
observed = "42.6%"

[[record]]
molecule = "CCS(=O)(=O)Nc1nc(-c2ccc(OCCCCCOc3ccc(C(=N)NO)cc3)cc2)c(C)s1 [Example 93]"
observation_type = "inhibition at 1 µM"
observed = "63.7%"

[[record]]
molecule = "CCc1sc(NCCOC)nc1-c1ccc(OCCCCCOc2ccc(C(=N)NO)cc2)cc1 [Example 102]"
observation_type = "inhibition at 1 µM"
observed = "96.4%"


Moving on to another molecule below.
stdin: Report inhibition at 1 µM for Cc1nc(-c2ccc(OCCCCCNc3cccc(C(=N)NO)c3)cc2)c(C(C)C)s1 [Example 195] please.
stdout: 42.3%
